Origin of the recorded values: patent US20240199598A1

assayOverview: Solubility test of sulfate (Crystalline form III) in various solvents
Format: physicochemical
reportedConditions: organic solvent or mixture, thermodynamic from solid; IPA, 25° C.; read-out: Solubility
quantity: solubility

solubility lookup needed for O=S1(=O)CCN(Cc2cc(NC3CCOCC3)c3[nH]c(-c4ccccc4)cc3c2)CC1 [Sulfate] , thanks.
< 2000 µg/mL

---

assayOverview: Solubility test of sulfate (Crystalline form III) in various solvents
Assay type: physicochemical
reportedConditions: organic solvent or mixture, thermodynamic from solid; DMF, 50° C.; read-out: Solubility
Method: First, solvent screening was performed for a study on various crystalline forms.
quantity: solubility

Which measured solubility value corresponds to O=S1(=O)CCN(Cc2cc(NC3CCOCC3)c3[nH]c(-c4ccccc4)cc3c2)CC1 [Sulfate] ?
304 to 608 mg/mL
